target: AGO2 (loaded with guide RNA) (Homo sapiens, UniProt Q9UKV8 1-859); assay: filter binding; range over four guides; 18 mM HEPES pH 7.4, 100 mM K-acetate, 1 mM Mg-acetate, 0.01% IGEPAL, 0.01 mg/mL yeast tRNA, 5 mM DTT, BSA, glycerol, 37 C, 4 h, 1-5 pM target; kinetics with 10; settings: protein: recombinant, tags: 3xFLAG-SUMOEu1 (removed by SENPEuB cleavage), g11-23 paired
Sequence (Q9UKV8 whole entry): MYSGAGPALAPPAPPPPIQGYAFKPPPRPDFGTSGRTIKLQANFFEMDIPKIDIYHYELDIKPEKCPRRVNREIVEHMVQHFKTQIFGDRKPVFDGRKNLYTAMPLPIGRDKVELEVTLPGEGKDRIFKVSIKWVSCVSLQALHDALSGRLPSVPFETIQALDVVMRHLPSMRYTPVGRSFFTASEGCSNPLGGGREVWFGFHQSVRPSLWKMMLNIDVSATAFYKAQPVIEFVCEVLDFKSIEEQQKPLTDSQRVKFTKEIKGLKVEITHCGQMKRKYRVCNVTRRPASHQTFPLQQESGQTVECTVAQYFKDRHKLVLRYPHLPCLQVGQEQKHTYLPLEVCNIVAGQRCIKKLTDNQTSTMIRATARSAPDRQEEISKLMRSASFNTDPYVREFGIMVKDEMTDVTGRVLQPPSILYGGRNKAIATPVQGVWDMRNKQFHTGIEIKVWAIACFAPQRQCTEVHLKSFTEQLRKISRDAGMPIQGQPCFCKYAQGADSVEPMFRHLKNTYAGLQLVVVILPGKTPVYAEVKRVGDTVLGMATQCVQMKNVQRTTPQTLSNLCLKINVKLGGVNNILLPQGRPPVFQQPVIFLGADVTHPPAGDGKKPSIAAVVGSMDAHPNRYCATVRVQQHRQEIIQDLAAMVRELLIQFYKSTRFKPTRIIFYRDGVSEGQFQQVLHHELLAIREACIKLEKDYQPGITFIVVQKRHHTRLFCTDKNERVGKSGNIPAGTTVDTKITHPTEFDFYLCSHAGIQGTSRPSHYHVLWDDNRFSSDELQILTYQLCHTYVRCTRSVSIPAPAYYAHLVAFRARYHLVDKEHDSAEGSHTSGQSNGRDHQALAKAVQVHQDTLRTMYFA
pKd: −log10 of the molar value.
property name: pKd

INPUT: Which pKd value belongs to miR-155 wt / m11_23 (mixed, 5'-phosphate guide) RNA 1: UUAAUGCUAAUCGUGAUAGGGGU RNA 2: UUUUUUACCCCUAUCACGACCUUUUUUUUUUUUUUU ?
OUTPUT: ~10.58
